system: SF-295 CNS; experiment: NCI-60 one-dose screen, 48 h; details: 10 µM unless noted
Compounds without any hit were thinned out: in the full panel of roughly 83,000, 20% have a hit. Calls of active or inactive are those of the source. The calls were made as follows: active = growth percent below 10; inactive = the rest.
Classes used: active, inactive

• CCN(CC)c1ccc2nc3c4ccccc4c(=O)cc-3n(-c3ccccc3)c2c1 = active
• O=C(Nc1cccc(Cl)c1)Nc1cc(C(F)(F)F)ccc1Cl = active
• Cc1n(Cc2ccc3ccccc3n2)cc[n+]1Cc1ccc2ccccc2c1 = active
• O=C1C=CC(=O)N1CO = inactive
• CN(C)CCOc1nc2c3cccnc3cc(-c3cccc(Cl)c3)c2c2ncccc12 = inactive
• O=c1c2sc3ccccc3c2nnn1-c1ccc(F)c(Cl)c1 = active
• FC1(F)CCN(Cc2c[nH]c3cc(Cl)ccc23)C[C@H]1CCc1ccccc1 = inactive
• O=C(/C=C/c1cccc([N+](=O)[O-])c1)c1ccc(Nc2nc(N3CCCCC3)nc(N3CCCCC3)n2)cc1 = inactive
• NS(=O)(=O)c1ccc(N2N=C(c3ccc(Br)cc3)CC2c2cn(-c3ccccc3)nc2-c2ccc(Cl)cc2)cc1 (stereo not given) = inactive
• COc1cccc2nc(Nc3cccc(NC(=O)c4ccc(N5CCN(C)CC5)c(C(F)(F)F)c4)c3)ccc12 = active

----------
This listing pairs molecules with measured growth.
test system: MOLT-4 leukemia; test: NCI-60 one-dose screen, 48 h (100 = growth as untreated, 0 = no growth, -100 = all killed); conditions: 10 µM unless noted
This is part of a sample that, as a whole, favours compounds with a hit. Of some 83,000 tested, about 20% had one in any assay.
RESULT TYPE: growth (%)

* COc1ccc(-c2cnc3ccnn3c2-c2cc(OC)c(OC)c(OC)c2)cc1 | 46.7
* O=C1OCC2=C1C(c1ccc(Cl)c(Cl)c1)c1cc3c(cc1N2CCO)CCC3 (stereo unspecified) | 18.9
* CC1=C(C(=O)Nc2ccc(F)cc2)C(c2ccc(C)cc2)C2=C(CC(C)(C)CC2=O)N1 (stereo unspecified) | 85
* O=[N+]([O-])c1cccc(N=C(Nc2cccc([N+](=O)[O-])c2)c2ccccc2)c1 | 59.4
* OC(c1cc2c(Cl)cc(Cl)cc2c2cc(C(F)(F)F)ccc12)C1CCCCN1 (stereo unspecified) | -62.6
* COc1ccc(C2CC(c3ccc(Nc4ccnc5cc(Cl)ccc45)cc3)=NN2c2ccccc2)cc1 (stereo unspecified) | 52.3
* COc1ccc([C@@H]2[C@@H](Cl)C(=O)N2c2cc(OC)c(OC)c(OC)c2)cc1C | 8.89
* CN(C)c1ccc(/C=N/Nc2nnc3n2N=C(c2ccc(Cl)cc2)CS3)cc1 | 66.6
* CCOC(=O)c1ccc(N(CCC(=O)O)C(C)=O)cc1 | 104
* CN1CCN(Cc2ccc(NC(=O)c3ccc(C#N)c(C#Cc4cnc(N)c5ncccc45)c3)cc2C(F)(F)F)CC1 | 59.6
* COc1ccc(-c2nnc(SCC(=O)Nc3ccc(C(=O)/C=C/c4ccc(Cl)cc4)cc3)n2-c2ccccc2)cc1 | 81.5
* Cc1n(Cc2ccc3ccccc3n2)cc[n+]1Cc1ccc2ccccc2c1 | 5.13
* N=C(N)c1ccc(-c2ccc(-c3cc(Cl)cc(Cl)c3)o2)nc1 | -55.1
* c1ccc2c(Cc3csc4ccccc34)csc2c1 | 87
* CCN(CC)CCC(CNc1ccnc2cc(Cl)ccc12)c1ccc(O)cc1 (stereo unspecified) | 48.3
* O=C1c2ccccc2C2N1CCC1CCc3ccccc3N12 (stereo unspecified) | 101
* COc1cc(/C=C2\C(=O)Nc3ccc(N(C)C)cc32)cc(OC)c1OC | 36.2
* COc1cc(Nc2ccnc3ccc(Br)cc23)cc(OC)c1OC | 32.1
* CCCCCCCCNC(C)C(O)c1ccc(SC(C)C)cc1 (stereo unspecified) | -46.6
* COC1CC(N)C2OC(c3ccccc3)OCC2O1 (stereo unspecified) | 100
* c1ccc(-c2[nH]c3ccccc3c2-c2ccccc2)cc1 | 66.2

----------
tested on: NCI-H23 lung; experiment: NCI-60 one-dose screen, 48 h (100 = growth as untreated, 0 = no growth, -100 = all killed); conditions: 10 µM unless noted
Compounds without any hit were thinned out: in the full panel of roughly 83,000, 20% have a hit.
RESULT TYPE: growth (%)

• CC(=O)c1nn(-c2ccccc2)/c(=N\N=C\c2coc3ccc(F)cc3c2=O)s1 = 96.8
• COc1cc(NC(C)CCCN)c2ncccc2c1Oc1ccc(Cl)cc1 (stereo not given) = 87.4
• CCCCCCCCCCCC1=NC(C)(C)CN1C(C)(C)CO = 59.5
• CCCCN(CCCC)CCC(O)c1cc2ccc(C(F)(F)F)cc2c2cc(C(F)(F)F)ccc12 (stereo not given) = 43.1
• Cn1c(=O)c2[nH]c(Cc3ccc4c(c3)OCO4)nc2n(C)c1=O = 99.8
• Oc1ccc(-c2cnc(-c3ccccc3)[nH]2)c(O)c1 = 108
• CCOC(C)(c1ccc(Cl)cc1)C1CCNCC1 (stereo not given) = 101
• C#CC[C@@H]1C[C@]2(C)[C@H]3CC[C@@H]4[C@H]5C(C(=C)C)CC[C@]5(C(=O)NCCN(CCN)CCN)CC[C@@]4(C)[C@]3(C)CC[C@H]2C(C)(C)[C@H]1OC(C)=O (stereo not given in full) = 77.3
• Cc1n(Cc2ccc3ccccc3n2)cc[n+]1Cc1ccc2ccccc2n1 = 69.8
• Cc1ccc(N2C3c4ccccc4N(S(=O)(=O)c4ccc(C)cc4)C2c2ccccc2N3S(=O)(=O)c2ccc(C)cc2)cc1 = 99.9

----------
tested on: A549/ATCC NSCLC; experiment: NCI-60 one-dose screen, 48 h (100 = growth as untreated, 0 = no growth, -100 = all killed); details: 10 µM unless noted
The panel holds about 83,000 compounds, 20% with a hit somewhere; the sample as a whole holds those more often.
RESULT TYPE: growth (%)

• Cc1n(Cc2ccc3ccccc3n2)cc[n+]1Cc1ccc2ccccc2c1 = 33.5
• Cc1ccc(N2C3c4ccccc4N(S(=O)(=O)c4ccc(C)cc4)C2c2ccccc2N3S(=O)(=O)c2ccc(C)cc2)cc1 = 97.1
• CCOCC(O)(c1ccc(Cl)cc1)c1ccc(Cl)cc1 = 83.2
• O=C(CCc1nc2sc3c(c2c(=O)[nH]1)CCC3)NCc1cn(-c2ccccc2)nc1-c1ccccc1 = 16.5
• Fc1ccc(-c2nnc(N3CCOCC3)c3ccccc23)cc1 = 102

----------
system: LOX IMVI melanoma; assay: NCI-60 one-dose screen, 48 h (100 = growth as untreated, 0 = no growth, -100 = all killed); conditions: 10 µM unless noted
About 83,000 compounds went through this panel and 20% of them were active in at least one assay; those are over-represented in the sample as a whole.
Is growth at least 40%? Then met. If not, not met.

- CCC1CCc2nc3sc(C(=O)Nc4cccc(F)c4)c(N)c3cc2C1 (stereo unspecified): met
- CCN(CC)CCCCCCCNc1cc(OC)cc2c(C)ccnc12: met
- COc1ccc(C2=NN(C=O)C(c3ccc(OS(=O)(=O)c4ccc(C)cc4)c(OC)c3)C2)cc1 (stereo unspecified): met
- O=C(/C=C/c1cc([N+](=O)[O-])ccc1Cl)c1ccccc1: not met
- COc1cc(NCCCCC(C)N)c2nccc(C)c2c1 (stereo unspecified): met
- O=C1C=CC(=O)N1c1cccc(N2C(=O)C=CC2=O)c1: met
- COc1cc2nccc(Oc3ccc(NC(=O)C4(C(=O)Nc5ccc(F)cc5)CC4)cc3)c2cc1OC(=O)c1ccc(N)cc1: not met
- CSC1=NC(=Nc2c(C)cccc2C)C2(CCC(C(C)(C)C)CC2)N1c1ccc(Cl)cc1 (stereo unspecified): not met
- Cc1ccc(C2CC(c3cccs3)=NN2c2ccc(S(N)(=O)=O)cc2)s1 (stereo unspecified): met
- CC(OC(=O)Nc1cccc(Cl)c1)C(=O)O (stereo unspecified): met
- COc1ccc(/C=c2\c(=O)n(-c3ccccc3)c3nn4c(n23)=NNC42CCCCC2)cc1: met
- CC(COC(=O)c1ccccc1)N1CC2CCC(C1)O2 (stereo unspecified): met
- Cc1ccc(NC(=O)c2nc(S(C)(=O)=O)oc2-c2ccc(F)cc2)cc1Nc1ccc2ncn(C)c(=O)c2c1: not met
- O=C(O)c1ccccc1N=Cc1ccccc1: met
- C=C(C)C1CCC2(C(=O)O)CCC3(C)C(CCC4C5(C)CCC(O)C(C)(C)C5CCC43C)C12 (stereo unspecified): not met
- N=c1n(Cc2ccccc2)c(N)cc(=O)n1Cc1ccccc1: not met
- CC(CN1CCN(CCOCCO)CC1)CN1c2ccccc2Sc2ccc(Cl)cc21 (stereo unspecified): not met
- O=C(/C=C/c1cn(-c2ccccc2)nc1-c1cccc(Nc2ccnc3cc(Cl)ccc23)c1)c1ccc2c(c1)OCO2: met
- Nc1nc(N)c2c(n1)NC(c1sc(Cl)nc1Cl)CC(c1ccccc1)=N2 (stereo unspecified): met
- CCCCOc1ncnc2nc[nH]c12: met
- Fc1cc(-c2nnc3sc(-c4ccc(Cl)cc4)nn23)c(Cl)cc1Cl: met

src = PubChem BioAssay (NCI)
